Assay: WST-based cell viability assay in ACHN cells
Conditions: human, ACHN cells, ACHN, 0.01uM; read-out: WST assay viability, AVG %
MEASURE_NAME: viability at 0.01 µM (%)

INSERT INTO results (molecule, units_label, experimental_result) VALUES
  ('O[C@H](CNCCOCCOCCOc1ccc(-c2c(-c3ccccc3)nn3c(C(F)(F)F)cc(C(F)(F)F)nc23)cc1)COc1ccc(OCc2ccccc2)c(OCCCc2ccccc2)c1', '%', 99.6),
  ('CC(C)NCC(O)COc1ccc(OCc2ccccc2)c(OCCCc2ccccc2)c1 (centres unmarked)', '%', 96);

* * *

Measured viability at 0.1 µM by item
Test: WST-based cell viability assay in LNCaP cells
Conditions: human, LNCaP cells, WST assay viability relative to con = 100, LNcaP, 0.1uM; duplicates
MEASURE_NAME: viability at 0.1 µM

INSERT INTO results (molecule, experimental_result) VALUES
  ('C=CC(C)(O)C(=O)N(C(=O)NCCOCCOCCNCC(O)COc1ccc(OCCc2ccccc2)c(OCCc2ccccc2)c1)c1cc(Cl)cc(Cl)c1 (centres unmarked)', '92.5%'),
  ('CC(C)NCC(O)COc1ccc(OCCc2ccccc2)c(OCCc2ccccc2)c1 (centres unmarked)', '105%');

* * *

Each record here notes measured viability at 10 µM.
Experiment: WST-based cell viability assay in LNCaP cells
Conditions: human, LNCaP cells, WST assay viability, AVG %, LNcaP, 10uM
MEASURE_NAME: viability at 10 µM (%)

INSERT INTO results (molecule, units_label, experimental_result) VALUES
  ('C=CC(C)(O)C(=O)N(C(=O)NCCOCCOCCNCC(O)COc1ccc(OCCc2ccccc2)c(OCCc2ccccc2)c1)c1cc(Cl)cc(Cl)c1 (centres unmarked) [VinclozolinM2-2204]', '%', 30.9),
  ('CC(C)NCC(O)COc1ccc(OCCc2ccccc2)c(OCCc2ccccc2)c1 (centres unmarked) [YOK-2204]', '%', 104);

* * *

Overview of recorded viability at 0.01 µM for various molecules
Experiment: WST-based cell viability assay in ACHN cells
Details: human, ACHN cells, ACHN, 0.01uM; duplicates; read-out: WST assay viability relative to con = 100
MEASURE_NAME: viability at 0.01 µM (%)

INSERT INTO assay_data (molecule, measure_name, units_label, experimental_result) VALUES
  ('CC(C)NCC(O)COc1ccc(OCc2ccccc2)c(OCCCc2ccccc2)c1 (centres unmarked)', 'viability at 0.01 µM', '%', 96.5),
  ('O[C@H](CNCCOCCOCCOc1ccc(-c2c(-c3ccccc3)nn3c(C(F)(F)F)cc(C(F)(F)F)nc23)cc1)COc1ccc(OCc2ccccc2)c(OCCCc2ccccc2)c1', 'viability at 0.01 µM', '%', 101);

* * *

Experiment: in vitro
Settings: human, WST assay viability relative to con = 100
MEASURE_NAME: viability at 0.1 µM (%)

INSERT INTO results (compound, measure_name, experimental_result) VALUES
  ('C=CC1(C)OC(=O)N(c2cc(Cl)cc(Cl)c2)C1=O (stereo not shown)', 'viability at 0.1 µM', 91.3);

* * *

Entries and their viability at 0.01 µM values follow.
Assay: WST-based cell viability assay in LNCaP cells
Details: human, LNCaP cells, WST assay viability, AVG %, LNcaP, 0.01uM
MEASURE_NAME: viability at 0.01 µM (%)

INSERT INTO measurements (compound, experimental_result) VALUES
  ('C=CC(C)(O)C(=O)N(C(=O)NCCOCCOCCNCC(O)COc1ccc(OCCc2ccccc2)c(OCCc2ccccc2)c1)c1cc(Cl)cc(Cl)c1 (centres unmarked)', 92.9),
  ('CC(C)NCC(O)COc1ccc(OCCc2ccccc2)c(OCCc2ccccc2)c1 (centres unmarked)', 101);

* * *

Assay: WST-based cell viability assay in ACHN cells
Settings: human, ACHN cells, ACHN, 50uM; read-out: WST assay viability, AVG %
Listed compounds paired with reported viability at 50 µM
MEASURE_NAME: viability at 50 µM (%)

INSERT INTO results (compound, units_label, experimental_result) VALUES
  ('O[C@H](CNCCOCCOCCOc1ccc(-c2c(-c3ccccc3)nn3c(C(F)(F)F)cc(C(F)(F)F)nc23)cc1)COc1ccc(OCc2ccccc2)c(OCCCc2ccccc2)c1 [PHTPP-1304]', '%', 11.6),
  ('CC(C)NCC(O)COc1ccc(OCc2ccccc2)c(OCCCc2ccccc2)c1 (centres unmarked) [YOK-1304]', '%', 113);

* * *

Assay: in vitro
Details: human, WST assay viability, AVG %
MEASURE_NAME: viability at 0.1 µM (%)

INSERT INTO results (compound, experimental_result) VALUES
  ('C=CC1(C)OC(=O)N(c2cc(Cl)cc(Cl)c2)C1=O (stereo not shown) [Vinclozolin]', 97.6);

* * *

# viability at 100 µM values compiled below
Test: WST-based cell viability assay in LNCaP cells
Conditions: human, LNCaP cells, WST assay viability relative to con = 100, LNcaP, 100uM; duplicates
MEASURE_NAME: viability at 100 µM (%)

INSERT INTO results (compound, experimental_result) VALUES
  ('CC(C)NCC(O)COc1ccc(OCCc2ccccc2)c(OCCc2ccccc2)c1 (centres unmarked)', 128),
  ('C=CC(C)(O)C(=O)N(C(=O)NCCOCCOCCNCC(O)COc1ccc(OCCc2ccccc2)c(OCCc2ccccc2)c1)c1cc(Cl)cc(Cl)c1 (centres unmarked)', 3.03);

* * *

Test: in vitro
Settings: human, WST assay viability, AVG %
MEASURE_NAME: viability at 50 µM (%)

INSERT INTO assay_data (molecule, measure_name, units_label, experimental_result) VALUES
  ('C=CC1(C)OC(=O)N(c2cc(Cl)cc(Cl)c2)C1=O (stereo not shown) [Vinclozolin]', 'viability at 50 µM', '%', 102);

* * *

Tau normalized to GAPDH and control, AVG % reference
Target: tauP301L (Homo sapiens, UniProt P10636, P618L)
Sequence (P10636 1-441 isoform P10636-8 P301L): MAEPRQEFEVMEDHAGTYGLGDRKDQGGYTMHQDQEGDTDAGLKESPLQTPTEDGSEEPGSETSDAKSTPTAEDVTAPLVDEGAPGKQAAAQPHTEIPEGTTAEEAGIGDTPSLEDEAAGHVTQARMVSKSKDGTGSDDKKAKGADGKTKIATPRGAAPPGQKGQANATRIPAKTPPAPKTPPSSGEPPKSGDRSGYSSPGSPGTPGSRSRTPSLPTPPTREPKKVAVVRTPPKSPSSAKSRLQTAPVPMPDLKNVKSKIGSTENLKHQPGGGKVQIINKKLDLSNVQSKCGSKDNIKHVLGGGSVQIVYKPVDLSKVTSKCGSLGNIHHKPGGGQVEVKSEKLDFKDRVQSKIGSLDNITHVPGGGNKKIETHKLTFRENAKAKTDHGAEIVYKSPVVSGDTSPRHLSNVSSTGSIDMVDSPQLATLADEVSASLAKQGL
Assay: WB degradation of tauP301L in SH-SY5Y-tauP301L cells
Type: cell-based
Conditions: densitometry, dosage degradation; SH-SY5Y-Tau-TiFC; 100 nM; average of N=3
Experimental: Adherent cells were washed with phosphate-buffered saline (PBS) and cell pellets were lysed in SDS-based sample buffer (277.8 mM Tris-HCI, pH 6.8, 4.4% LDS, 44.4% (v/v) glycerol) containing beta-mercaptoethanol. Alternatively, cell pellets or protein supernatants were lysed in 5X Laemmli sample buffer. […] Densitometry of developed bands was measured and analyzed with ImageJ (NIH, Bethesda).
MEASURE_NAME: Tau normalized to GAPDH and control, AVG % (%)

INSERT INTO assay_data (molecule, units_label, experimental_result) VALUES
  ('O=C(O)CCCc1ccccc1', '%', 90.7287),
  ('Brc1cccc(-c2cc(-c3ccc4c(c3)OCO4)[nH]n2)c1 [Anle138b, reference compound]', '%', 84.5794),
  ('O=C(CCCc1ccccc1)NCCOCCOCCOCCNCc1ccc(OCc2ccccc2)c(OCc2ccccc2)c1', '%', 23.7212),
  ('Fc1ccc(COc2cccc(CNCCOCCOCCNc3cccc(-c4cc(-c5ccc6c(c5)OCO6)n[nH]4)c3)c2)cc1', '%', 27.9865);

* * *

Target: tauP301L (Homo sapiens, UniProt P10636, P618L)
Assay: WB degradation of tauP301L in SH-SY5Y-tauP301L cells
Type: cell-based
Settings: densitometry, dosage degradation; SH-SY5Y-Tau-TiFC; 1 nM; average of N=3
Recorded Tau normalized to GAPDH and control, AVG % by entry
MEASURE_NAME: Tau normalized to GAPDH and control, AVG % (%)

INSERT INTO results (compound, experimental_result) VALUES
  ('O=C(CCCc1ccccc1)NCCOCCOCCOCCNCc1ccc(OCc2ccccc2)c(OCc2ccccc2)c1', 46.0558),
  ('Brc1cccc(-c2cc(-c3ccc4c(c3)OCO4)[nH]n2)c1 [Anle138b, reference compound]', 90.8031),
  ('Fc1ccc(COc2cccc(CNCCOCCOCCNc3cccc(-c4cc(-c5ccc6c(c5)OCO6)n[nH]4)c3)c2)cc1', 89.5946),
  ('O=C(O)CCCc1ccccc1', 80.1686);

* * *

Test: in vitro
Settings: human, WST assay viability relative to con = 100
MEASURE_NAME: viability at 10 µM (%)

INSERT INTO assay_data (molecule, measure_name, units_label, experimental_result) VALUES
  ('C=CC1(C)OC(=O)N(c2cc(Cl)cc(Cl)c2)C1=O (stereo not shown)', 'viability at 10 µM', '%', 92.8);

* * *

Test: WST-based cell viability assay in ACHN cells
Conditions: human, ACHN cells, ACHN, 0.1uM; read-out: WST assay viability, AVG %
Measured viability at 0.1 µM of individual entries
MEASURE_NAME: viability at 0.1 µM

INSERT INTO measurements (compound, experimental_result) VALUES
  ('O[C@H](CNCCOCCOCCOc1ccc(-c2c(-c3ccccc3)nn3c(C(F)(F)F)cc(C(F)(F)F)nc23)cc1)COc1ccc(OCc2ccccc2)c(OCCCc2ccccc2)c1 [PHTPP-1304]', '101%'),
  ('CC(C)NCC(O)COc1ccc(OCc2ccccc2)c(OCCCc2ccccc2)c1 (centres unmarked) [YOK-1304]', '106%');
